- System: SLK
- measurementSetup: concentration: 1 μM, replicates: in singlicate; n = 1;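 note: KINOMEscan kinase panel screen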
propertyName: %Inh (%)
Answer with a number only, understood to be in %.

Sample records with %Inh:
>  <compound>
COc1cc(Nc2ccnc3ccc(C(F)(F)F)cc23)cc(OC)c1OC

>  <resultUnits>
%

>  <%Inh>
24

$$$$
>  <compound>
O=c1cc(N2CCOCC2)nc2n(Cc3ccc(F)c(Cl)c3)ccn12

>  <resultUnits>
%

>  <%Inh>
0

$$$$
>  <compound>
O=C(Nc1n[nH]c2cc(-c3ccccc3F)ccc12)C1CC1

>  <resultUnits>
%

>  <%Inh>
1

$$$$
>  <compound>
CCC(=O)c1c(-c2ccccc2)c2cc(Cl)ccc2c(=O)n1Cc1cc(S(C)(=O)=O)n(CC(F)F)n1

>  <resultUnits>
%

>  <%Inh>
0

$$$$
>  <compound>
Cc1cc(Nc2nc(-c3cccc(C)n3)nc3ccccc23)ccn1

>  <resultUnits>
%

>  <%Inh>
0

$$$$

Consider `CCC(=O)c1c(-c2ccccc2)c2cc(Cl)ccc2c(=O)n1Cc1ccc(C(=O)O)cc1` . Its measured %Inh is 0

Consider `Cc1c(Cn2c(C)nn3c(=O)cc(N4CCO[C@H](C)C4)nc23)cccc1C(F)(F)F` . Its measured %Inh is 18

Consider `Cc1nc(N(C)[C@H]2CN(C(=O)CC#N)CC[C@H]2C)c2cc[nH]c2n1` . Its measured %Inh is 1

Consider COc1ccc(CNC(=O)NC2CCN(c3ccnc(Nc4ccc(F)cc4)n3)C2)cc1 (stereo not shown) . Its measured %Inh is 9

Consider `COc1cc2ncn(-c3cc(OCCCc4ccccc4)c(C(N)=O)s3)c2cc1OC` . Its measured %Inh is 79

Consider `Nc1n[nH]c2ncc(-c3ccccc3)cc12` . Its measured %Inh is 0

Consider `CCn1c(-c2ccoc2)nc2cnccc21` . Its measured %Inh is 25

Consider `CC(C)(C)c1ccc(C(=O)Nc2cn3cc(-c4ccccc4)ccc3n2)cc1` . Its measured %Inh is 9

====

- Tested on: MST3
- Construct: gene STK24
- measurementSetup: concentration: 1 μM, replicates: in singlicate; n = 1
Measured %Inh by item
Answer with a number only, understood to be in %.

Sample records with %Inh:
>  <compound>
Nc1nc(-c2ccccc2F)c(-c2ccnc3ccccc23)s1 [GW560459]

>  <resultUnits>
%

>  <recordedValue>
7

$$$$
>  <compound>
Cl.c1ccc(Cn2cnc3cc(Nc4ncnc5ccccc45)ccc32)cc1 [GW272142]

>  <resultUnits>
%

>  <recordedValue>
0

$$$$
>  <compound>
O=C(NCc1cccs1)c1cc(C(=O)c2c(Cl)cccc2Cl)c[nH]1 [GW823670]

>  <resultUnits>
%

>  <recordedValue>
0

$$$$
>  <compound>
CCC(=O)c1c(-c2ccccc2)c2cc(Cl)ccc2c(=O)n1Cc1cc(S(C)(=O)=O)n(CC(F)F)n1

>  <resultUnits>
%

>  <recordedValue>
0

$$$$
>  <compound>
CCS(=O)c1ccc(-c2coc3ccc(-c4nnc(C)o4)cc23)cc1 (stereo not shown)

>  <resultUnits>
%

>  <recordedValue>
17

$$$$

Form field %Inh for item `COc1ccc(-c2cc3c(C)nc(N)nc3n([C@H]3CC[C@H](O)CC3)c2=O)cn1` on MST3: 2

Form field %Inh for item Nc1ncnc2c1ncn2-c1cccc2ccccc12 [SKF-97184] on MST3: 0

Form field %Inh for item CN(C)c1cc(-c2ccc3c(N)n[nH]c3c2)nc(N)n1 [GSK2219329] on MST3: 5

Form field %Inh for item `CCC(=O)c1c(-c2ccccc2)c2cc(Cl)ccc2c(=O)n1Cc1cc(S(C)(=O)=O)n(CC(N)=O)n1` on MST3: 0

Form field %Inh for item Cc1nnc(-c2ccc3ncn(-c4ccc(S(C)=O)cc4)c3c2)o1 (stereo not shown) on MST3: 50

====

Measured %Inh by item
- System: ERBB2
- measurementSetup: concentration: 1 μM, replicates: in singlicate; n = 1
Answer with a number only, understood to be in %.

Consider `COc1cccc(C2=C(Nc3cccc(C(=O)O)c3)C(=O)NC2=O)c1` . Its measured %Inh is 6

Consider `COc1ccc(-n2cnc3c(N)ncnc32)cc1` . Its measured %Inh is 7

Consider `O=c1cc(N2CCOCC2)nc2n(Cc3ccc(F)c(Cl)c3)ccn12` . Its measured %Inh is 0

====

Measured %Inh by item
- Tested on: CSF1R-autoinhibited
- measurementSetup: concentration: 1 μM, replicates: in singlicate; n = 1

>  <compound>
COc1ccc(Nc2nccc(N3CCC(NS(=O)(=O)c4ccc(NC(C)=O)cc4)C3)n2)cc1 (stereo not shown) [GSK1379729]

>  <targetOrTestSystem>
CSF1R-autoinhibited

>  <propertyName>
%Inh

>  <recordedValue>
0%

$$$$
>  <compound>
Nc1ncnc2c1ncn2-c1ccc(Cl)cc1 [AH2635]

>  <targetOrTestSystem>
CSF1R-autoinhibited

>  <propertyName>
%Inh

>  <recordedValue>
0%

$$$$
>  <compound>
Cc1cccc(-c2cc(-c3c[nH]nc3-c3ccccn3)ccn2)c1 [GW679395]

>  <targetOrTestSystem>
CSF1R-autoinhibited

>  <propertyName>
%Inh

>  <recordedValue>
0%

$$$$
>  <compound>
CCc1nc(-c2cccc(C)c2)c(-c2ccncc2)s1

>  <targetOrTestSystem>
CSF1R-autoinhibited

>  <propertyName>
%Inh

>  <recordedValue>
0%

$$$$
>  <compound>
CCC(=O)c1c(-c2ccccc2)c2cc(Cl)ccc2c(=O)n1Cc1cc(S(C)(=O)=O)n(CC(N)=O)n1

>  <targetOrTestSystem>
CSF1R-autoinhibited

>  <propertyName>
%Inh

>  <recordedValue>
0%

$$$$
>  <compound>
Nc1ncnc2c1ncn2-c1cccc(F)c1 [SKF-97560]

>  <targetOrTestSystem>
CSF1R-autoinhibited

>  <propertyName>
%Inh

>  <recordedValue>
19%

$$$$
>  <compound>
Nc1n[nH]c2ncc(-c3ccccc3)cc12 [SB-517081]

>  <targetOrTestSystem>
CSF1R-autoinhibited

>  <propertyName>
%Inh

>  <recordedValue>
0%

$$$$
>  <compound>
Cc1nnc(-c2ccc(C)c(-c3ccc(C(=O)O)cc3)c2)o1 [GW608005]

>  <targetOrTestSystem>
CSF1R-autoinhibited

>  <propertyName>
%Inh

>  <recordedValue>
0%

$$$$
>  <compound>
Nc1nc(-c2ccccc2F)c(-c2ccnc3ccccc23)s1 [GW560459]

>  <targetOrTestSystem>
CSF1R-autoinhibited

>  <propertyName>
%Inh

>  <recordedValue>
24%

$$$$
>  <compound>
CCCNC(=O)Nc1ccc(Oc2ncnc3ccn(C)c23)cc1

>  <targetOrTestSystem>
CSF1R-autoinhibited

>  <propertyName>
%Inh

>  <recordedValue>
7%

$$$$

Consider COc1cc2ncn(-c3cc(OCc4ccncc4)c(C(N)=O)s3)c2cc1OC [GSK336313] . Its measured %Inh is 0%

Consider `COC(=O)c1c(-c2ccccc2)c2cc(Br)ccc2c(=O)n1Cc1ccc(S(C)(=O)=O)cc1` . Its measured %Inh is 7%

Consider OCCCNc1nccc(-c2c(-c3cccc(C(F)(F)F)c3)nn3cc(C(F)(F)F)ccc23)n1 [GW630813] . Its measured %Inh is 32%

Consider Cl.NS(=O)(=O)c1cccc(Nc2cc(-c3ccc(F)cc3)n[nH]2)c1 [GW824645] . Its measured %Inh is 0%

Consider `Fc1cccc(CSc2nnc(-c3ccc4c(c3)CCO4)o2)c1` . Its measured %Inh is 5%

Consider COc1cccc(C2=C(Nc3cccc(C(=O)O)c3)C(=O)NC2=O)c1 [SB-390770] . Its measured %Inh is 0%

====

Measured %Inh by item
- Tested on: RSK2(Kin.Dom.1-N-terminal)
- Construct: gene RPS6KA3
- measurementSetup: concentration: 1 μM, replicates: in singlicate; n = 1
Answer with a number only, understood to be in %.

Sample records with %Inh:
>  <compound>
COc1cc(Nc2nccc(N3CCC(NC(=O)C(C)c4ccc(Cl)cc4)C3)n2)cc(OC)c1OC (stereo not drawn)

>  <recordedValue>
2

$$$$
>  <compound>
CCC(=O)c1c(-c2ccccc2)c2cc(Cl)ccc2c(=O)n1Cc1cc(C(=O)NC2CC2)n(C)n1

>  <recordedValue>
0

$$$$

Consider `Cl.NS(=O)(=O)c1cccc(Nc2cc(-c3ccc(F)cc3)n[nH]2)c1` . Its measured %Inh is 35

Consider `Cc1ccc(Oc2ccc(Nc3ncnc4cc[nH]c34)cc2C)cn1` . Its measured %Inh is 0

Consider `Nc1n[nH]c2nnc(-c3ccccc3)c(-c3ccccc3)c12` . Its measured %Inh is 4
